Catalogue of log2 fold change of degron read counts readings, one per entry.
system: T1, CRBN, Q96SW2;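 also: pooled lentiviral library of zinc finger degron-EGFP fusions in mCherry-positive Jurkat cells, FACS-sorted after compound exposure, with degron abundance counted by next-generation sequencing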
T1 chain: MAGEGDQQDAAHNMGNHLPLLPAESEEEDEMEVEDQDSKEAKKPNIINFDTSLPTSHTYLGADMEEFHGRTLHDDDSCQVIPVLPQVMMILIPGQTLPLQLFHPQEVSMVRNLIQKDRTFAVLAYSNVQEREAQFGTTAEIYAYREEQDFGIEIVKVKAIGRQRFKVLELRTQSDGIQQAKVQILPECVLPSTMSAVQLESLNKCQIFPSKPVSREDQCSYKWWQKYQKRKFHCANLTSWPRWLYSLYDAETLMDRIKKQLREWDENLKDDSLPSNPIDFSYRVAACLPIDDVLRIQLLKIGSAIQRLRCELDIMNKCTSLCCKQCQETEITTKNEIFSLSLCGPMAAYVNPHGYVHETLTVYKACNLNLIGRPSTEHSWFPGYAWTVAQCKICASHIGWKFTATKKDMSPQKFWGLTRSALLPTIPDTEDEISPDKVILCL
experimental-details: log2 fold change of degron read counts, EGFP-low vs EGFP+ sorted cells (limma voom), compound-induced degradation; higher = more compound-induced degradation of the degron-EGFP fusion; degrons are variants of IKZF1/3 zinc finger 2; compound dose not given here
study-conditions: Jurkat; 18 h; compound: compound 22 (5-morpholino-thalidomide)
Whole data set: some 8,300 sequences, median “log2 fold change of degron read counts, EGFP-low vs EGFP+ sorted cells (limma voom), compound-induced degradation” near -1.1, cut for the highest 2% near 3.2. The sample holds the highest values, similar sequences and a random draw of the others, so the mix is not that of the screen.
reported-endpoint: log2 fold change of degron read counts

- residue-sequence: "LGCPICGFMCTQKGNLLRHIKL [46L_47G_49P_50I_52G_53F_54M_55C_67L_, Q9UKT9]"
  measured: 1.83
- residue-sequence: "FECEVCGAMFTQKGNLLRHIKL [46F_47E_49E_50V_52G_53A_54M_55F_67L_, Q9UKT9]"
  measured: -1.93
- residue-sequence: "LKCPICGFMCTQKGNLLRHIKL [46L_47K_49P_50I_52G_53F_54M_55C_67L_, Q9UKT9]"
  measured: -2.03
- residue-sequence: "LECPICGFMCTQKGNLLRHIKL [46L_47E_49P_50I_52G_53F_54M_55C_67L_, Q9UKT9]"
  measured: -0.68
- residue-sequence: "FACEVCGAMFTQKGNLLRHIKL [46F_47A_49E_50V_52G_53A_54M_55F_67L_, Q9UKT9]"
  measured: 1.34
- residue-sequence: "LVCPICGFMCTQKGNLLRHIKL [46L_47V_49P_50I_52G_53F_54M_55C_67L_, Q9UKT9]"
  measured: 2.15
- residue-sequence: "FVCEVCGAMFTQKGNLLRHIKL [46F_47V_49E_50V_52G_53A_54M_55F_67L_, Q9UKT9]"
  measured: 1.3

Data credit: the supplement of paper PMC12645437
